Attribution: patent US20240343761A1

# measurement_target: hAPJ receptor (Homo sapiens, UniProt P35414)
# Construct: expressed in transfected cells; host or cells: HEK293, transient transfection with PEI
# Sequence (P35414 1-380): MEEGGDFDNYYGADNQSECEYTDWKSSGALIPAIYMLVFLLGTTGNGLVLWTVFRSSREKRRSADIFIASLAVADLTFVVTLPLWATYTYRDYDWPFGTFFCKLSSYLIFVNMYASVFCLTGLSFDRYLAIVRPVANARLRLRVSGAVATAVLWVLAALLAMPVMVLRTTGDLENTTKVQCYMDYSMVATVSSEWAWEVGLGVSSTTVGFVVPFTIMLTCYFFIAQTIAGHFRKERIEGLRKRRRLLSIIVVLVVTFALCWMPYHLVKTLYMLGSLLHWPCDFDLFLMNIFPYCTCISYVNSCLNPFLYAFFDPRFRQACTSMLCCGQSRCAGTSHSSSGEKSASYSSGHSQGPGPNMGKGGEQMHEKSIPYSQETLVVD
# assay_procedure: BRET-based Gαi1 activation assay in HEK293 cells
# Type: cell-based
# condition_details: HEK293; Table V; read-out: Gαi1 Emax
measure_name: Emax (%)
Numbers only, in %.

Example compounds with recorded Emax:
>>> recorded_measurement("CCCC[C@H](NC(=O)[C@@H]1CCCN1C(=O)CNC(=O)[C@H](CCCCN)NC(=O)[C@@H]1CCN(S(=O)(=O)c2ccccc2[N+](=O)[O-])CC=CC[C@H](N)C(=O)N[C@@H](CCCNC(=N)N)C(=O)N[C@@H](CC(C)C)C(=O)N[C@@H](CO)C(=O)N1)C(=O)N1CCC[C@H]1C(=O)N[C@@H](Cc1ccccc1)C(=O)O [Compound 28, NH2-c[X-R-L-S-Alnb]c-K-G-P-Nle-P-F]")
106
>>> recorded_measurement("CCCC[C@H](NC(=O)[C@@H]1CCCN1C(=O)CNC(=O)[C@H](CCCCN)NC(=O)[C@@H]1CCCC[C@H](NC(=O)[C@H](CCCNC(=N)N)NC(=O)[C@@H]2CCC(=O)N2)C(=O)N[C@@H](CCCNC(=N)N)C(=O)N[C@@H](CC(C)C)C(=O)N[C@@H](CO)C(=O)N1)C(=O)N1CCC[C@H]1C(=O)N[C@@H](Cc1ccccc1)C(=O)O [Compound 13, Pyr-R-c*[X-R-L-S-X]c-K-G-P-Nle-P-F]")
102
>>> recorded_measurement("CCCC[C@H](NC(=O)[C@@H]1CCCN1C(=O)CNC(=O)[C@H](CCCCN)NC(=O)[C@@H]1CCN(C)CC=CC[C@H](NC(=O)[C@H](CCCNC(=N)N)NC(=O)[C@@H]2CCC(=O)N2)C(=O)N[C@@H](CCCNC(=N)N)C(=O)N[C@@H](CC(C)C)C(=O)N[C@@H](CO)C(=O)N1)C(=O)N1CCC[C@H]1C(=O)N[C@@H](Cc1ccccc1)C(=O)O [Compound 19, Pyr-R-c[X-R-L-S-Almb]c-K-G-P-Nle-P-F]")
102
>>> recorded_measurement("CCCC[C@H](NC(=O)[C@@H]1CCCN1C(=O)CNC(=O)[C@H](CCCCN)NC(=O)[C@@H]1CCNCC=CC[C@H](NC(=O)[C@H](CCCNC(=N)N)NC(=O)[C@@H]2CCC(=O)N2)C(=O)N[C@@H](CCCNC(=N)N)C(=O)N[C@@H](CC(C)C)C(=O)N[C@@H](CO)C(=O)N1)C(=O)N1CCC[C@H]1C(=O)N[C@@H](Cc1ccccc1)C(=O)O [Compound 18, Pyr-R-c[X-R-L-S-Alb]c-K-G-P-Nle-P-F]")
100
>>> recorded_measurement("CC(C)C[C@@H]1NC(=O)[C@H](CCCNC(=N)N)NC(=O)[C@@H](N)CC=CC[C@@H](C(=O)N[C@@H](CCCCN)C(=O)NCC(=O)N2CCC[C@H]2C(=O)N[C@H](Cc2ccc(O)cc2)C(=O)O)NC(=O)[C@H](CO)NC1=O [Compound 45, NH2-c[X-R-L-S-X]c-K-G-P-(D-Tyr)]")
100

Prompt line: // lookup Emax for CC(C)C[C@@H]1NC(=O)[C@H](CCCNC(=N)N)NC(=O)[C@@H](N)CC=CC[C@@H](C(=O)N[C@@H](CCCCN)C(=O)NCC(=O)N2CCC[C@H]2C(=O)N[C@H](Cc2ccc3ccccc3c2)C(=O)O)NC(=O)[C@H](CO)NC1=O [Compound 43, NH2-c[X-R-L-S-X]c-K-G-P-(D-2Nal)]
Response line: 105
